// data source = PubChem BioAssay AID1159580

normalized growth values by entry
assay: chemical genetic growth profiling, strain panel (AID 1159580);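 also: tested at 20 µM; growth read once vehicle control cultures reached saturation at 30 °C; 1 = growth at the plate median or of vehicle wells; lower values mean less growth of the strain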; settings: S. cerevisiae deletion strains, growth OD, locus YJL134W, strain LCB3, active compounds read low
About 2,000 (36%) of roughly 5,500 compounds were called active. Roughly 18% stayed inconclusive and do not appear here. The list shows a part of the results.
In your answer, state the number alone without any accompanying words.

Solved cases below.
[[record]]
compound = "CCOC(=O)[C@H](CCc1ccccc1)N[C@@H](C)C(=O)N1Cc2ccccc2C[C@H]1C(=O)O"
observed = 1.01

[[record]]
compound = "O=c1[nH]cnc2[nH]ncc12"
observed = 0.999

[[record]]
compound = "CC12CC3CC(C)(C1)CC(N)(C3)C2"
observed = 0.999

[[record]]
compound = "CC(CCC(=O)O)[C@H]1CCC2C3C[C@H](O)[C@@H]4C[C@H](O)CC[C@]4(C)C3CC[C@@]21C (stereo not given in full)"
observed = 1.03

[[record]]
compound = "CC(C)CCCC(C)C1CCC2C3CC[C@H]4CCCC[C@]4(C)C3CC[C@]12C (stereo not given in full)"
observed = 0.991


What measured normalized growth goes with O=C(O)c1ccccc1C(=O)Nc1ccc(S(=O)(=O)Nc2nccs2)cc1 ? 1

# iterate: COC(=O)CCC(C)C1CCC2C3CC[C@@H]4C[C@H](O)CC[C@]4(C)C3C[C@H](O)[C@]12C (stereo not given in full) 1.01

Let us now turn to COc1c2ccoc2nc2c(OC)c(OCC(O)C(C)(C)O)ccc12 (stereo not given) 0.989

Then what about the compound CC(CCC(=O)O)[C@H]1CCC2C3CC[C@@H]4C[C@H](O)CC[C@]4(C)C3C[C@H](O)[C@@]21C (stereo not given in full) ? 1.01

Next compound: COc1cc2c(cc1-c1cc3cc4ccoc4cc3oc1=O)OCO2 0.973

* * *

test: chemical genetic growth profiling, strain panel (AID 1159580); settings: S. cerevisiae deletion strains, growth OD, locus YKL160W, strain elf1
The whole screen tested about 5,500 compounds, of which about 2,000 (36%) were called active. Not shown: some 18% with an inconclusive outcome. Cut-off read from the data, not from the text of the source: active = normalized growth mostly below about 0.91 (no sharp cut-off); inconclusive = no clear call, values can overlap the other calls; inactive = mostly above about 0.92. The list shows a part of the results.
Your response should consist of one outcome taken from true (1) = active, false (0) = inactive

[[record]]
compound = "NC(=O)c1ncn(C2O[C@H](CO)[C@@H](O)[C@H]2O)c1N (stereo not given in full)"
qualitative_label = "false (0)"

[[record]]
compound = "CNC(=O)Oc1ccc2c(c1)[C@]1(C)CCN(C)[C@@H]1N2C"
qualitative_label = "false (0)"

[[record]]
compound = "CN(C)CCOC(=O)C(c1ccccc1)C1(O)CCCC1 (stereo not given)"
qualitative_label = "false (0)"


# lookup: test call for Nc1cc(C(Cl)=C(Cl)Cl)c(S(N)(=O)=O)cc1S(N)(=O)=O false (0)

And then Cc1nc2ccccn2c(=O)c1CCN1CCC(C(=O)c2ccc(F)cc2)CC1 , what is it? false (0)

// same read-out, input: CCOC(=O)[C@H](CCc1ccccc1)N[C@@H](C)C(=O)N1Cc2ccccc2C[C@H]1C(=O)O false (0)

Can you handle CN(C)CCOC(=O)COc1ccc(Cl)cc1 next? false (0)

Then what about the compound O=c1cc(-c2ccccc2)oc2cccc(O)c12 ? true (1)

Proceed to N#C/C(=C\c1cccc(O)c1)C(=O)O false (0)

# repeat for COc1cc(S(C)=O)ccc1-c1nc2ncccc2[nH]1 (stereo not given) false (0)

* * *

assay: chemical genetic growth profiling, strain panel (AID 1159580); settings: S. cerevisiae deletion strains, growth OD, locus YIL073C, strain SPO22, active compounds read low
In all, about 5,500 compounds went through this assay and about 2,000 (36%) were called active. Not shown: some 18% with an inconclusive outcome. The list shows a part of the results.
Observed Property: normalized growth
The response must contain the number and no unit.

// solved cases for normalized growth follow
[[record]]
compound = "Nc1ccncc1"
observed = 0.993

[[record]]
compound = "CCCCCC1C(=O)CCC1CC(=O)O (stereo unspecified)"
observed = 1.04

[[record]]
compound = "COc1cc(C)c(C(=O)Oc2cc(C)c(C(=O)O)c(O)c2C)c(OC)c1C"
observed = 1.06

[[record]]
compound = "O=c1[nH]cnc2[nH]ncc12"
observed = 1.04

[[record]]
compound = "CC[C@H](CCC(C)[C@H]1CCC2C3CCC4C[C@@H](O)CC[C@]4(C)C3CC[C@@]21C)C(C)C (stereo partly specified)"
observed = 1.03

[[record]]
compound = "COC(=O)CCC(C)C1CCC2C3CC[C@@H]4C[C@H](O)CC[C@]4(C)C3C[C@H](O)[C@]12C (stereo partly specified)"
observed = 1.27


Request the reported normalized growth associated with CC(C)CCCC(C)C1CCC2C3CC[C@H]4CCCC[C@]4(C)C3CC[C@]12C (stereo partly specified) 1.08

Now the compound CN(C)CCC(c1ccc(Br)cc1)c1ccccn1 (stereo unspecified) 1.04

Next compound up: Nc1cc(-c2ccncc2)c[nH]c1=O 0.713

Please give the result for COC(=O)c1c(C)cc(OC(=O)c2c(C)cc(O)c(C=O)c2O)c(C)c1O too. 1.02

Same read-out for CC(CCC(=O)O)[C@H]1CCC2C3C[C@H](O)[C@@H]4C[C@H](O)CC[C@]4(C)C3CC[C@@]21C (stereo partly specified) ? 1.1

* * *

experiment: chemical genetic growth profiling, strain panel (AID 1159580);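 also: tested at 20 µM; growth read once vehicle control cultures reached saturation at 30 °C; 1 = growth at the plate median or of vehicle wells; lower values mean less growth of the strain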; settings: S. cerevisiae deletion strains, growth OD, locus YER015W, strain faa2
Hit rate of the full screen: of about 5,500 compounds, about 2,000 (36%) were called active. Inconclusive results (about 18%) are left out. Cut-off read from the data, not from the text of the source: active = normalized growth mostly below about 0.91 (no sharp cut-off); inconclusive = no clear call, values can overlap the other calls; inactive = mostly above about 0.92. Some of the results follow.
Write down the outcome that applies. Available outcomes: T for active, F for inactive

[[record]]
compound = "C=C1C(C2(C)C=CC(=O)C(C)(C)C2CC(=O)OC)CC[C@@]2(C)[C@H](c3ccoc3)OC(=O)C3OC132 (stereo partly specified)"
qualitative_label = "F"

[[record]]
compound = "CC1(C)C(O)CC(O)C2(C)C1CC(O)C1(C)C2CCC2(C)C(c3ccoc3)OC(=O)C3OC321 (stereo unspecified)"
qualitative_label = "F"

[[record]]
compound = "Cc1ncc([N+](=O)[O-])n1CC(C)O (stereo unspecified)"
qualitative_label = "F"


Returns: the outcome recorded for C[C@@H](N)[C@@H](O)c1ccccc1 in this assay. F

Lookup C=C1[C@H]2CC[C@@]3(C)[C@H](c4ccoc4)OC(=O)C[C@]13O[C@H]1C[C@H](O)C(C)(C)[C@H](CC(=O)OC)[C@]12C F

Same question, CC(=O)Nc1nnc(S(N)(=O)=O)s1 this time F

Also NC(N)=O ? F

Again, but for C[C@@H]1O[C@@H](O[C@H]2C[C@@H](O)[C@]3(CO)C4C(CC[C@]3(O)C2)[C@@]2(O)CC[C@H](C3=CC(=O)OC3)[C@@]2(C)C[C@H]4O)[C@H](O)[C@H](O)[C@H]1O (stereo partly specified) F

Request: CN(C)CCOC(=O)C(c1ccccc1)C1(O)CCCC1 (stereo unspecified) F

Try this compound too: COC(=O)CCCOc1ccc(Cl)cc1Cl F

* * *

assay: chemical genetic growth profiling, strain panel (AID 1159580);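 also: tested at 20 µM; growth read once vehicle control cultures reached saturation at 30 °C; 1 = growth at the plate median or of vehicle wells; lower values mean less growth of the strain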; conditions: S. cerevisiae deletion strains, growth OD, locus YDL017W, strain CDC7, active compounds read low
Hit rate of the full screen: of about 5,500 compounds, about 2,000 (36%) were called active. About 18% were inconclusive and are not listed. This is one part of the list.
Observed Property: normalized growth
Answer using only a numeral; do not append any unit.

Solved cases below.
[[record]]
molecule = "COc1cc(CC/C(C)=N/O)ccc1OCc1ccc(Cl)cc1Cl"
observed_property = "normalized growth"
observed = 0.979

[[record]]
molecule = "O=C(Nc1ccc(Cl)cc1)O/N=C\\c1ccn(-c2ccccc2)n1"
observed_property = "normalized growth"
observed = 0.971

[[record]]
molecule = "C/C(=N/Nc1ccccc1)c1cc(Cl)cc(Cl)c1O"
observed_property = "normalized growth"
observed = 0.964


State the recorded normalized growth for this entry: Cc1ccc(S(=O)(=O)Nc2ccc(Oc3ccc(F)cc3)cc2)cc1 0.985

Now consider COc1ccc(CC2CCC(=NOC(=O)c3ccc(C(C)(C)C)cc3)CC2)cc1 (centres undefined) and answer again. 0.982

Please answer likewise for COc1ccc(CC2CCC(=NOC(=O)c3c(Cl)cccc3Cl)CC2)cc1 (centres undefined) 1.04

Try this molecule next: S=C(Nc1cc(Cl)c(Cl)cc1Cl)Nc1ccccc1Br 0.963

What would you report for CS(=O)(=O)/C(C#N)=C/c1ccccc1OCc1c(Cl)cccc1Cl ? 0.961

* * *

test: chemical genetic growth profiling, strain panel (AID 1159580);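 also: tested at 20 µM; growth read once vehicle control cultures reached saturation at 30 °C; 1 = growth at the plate median or of vehicle wells; lower values mean less growth of the strain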; details: S. cerevisiae deletion strains, growth OD, locus YHR200W, strain rpn10, active compounds read low
Out of some 5,500 compounds screened, about 2,000 (36%) were called active. Roughly 18% stayed inconclusive and do not appear here. The list shows a part of the results.
The entries below come with measured normalized growth values attached.
The response must contain the number and no unit.

Answered cases to consult:
[[record]]
compound = "COc1cc(OC)c2c3c1C(=O)c1c(OC)cc(C)c4c(OC)cc(c-3c14)C(C)(C)C2=O"
observed = 0.989

[[record]]
compound = "CC(CN(C)C)CN1c2ccccc2Sc2ccccc21 (configuration not stated)"
observed = 0.988

[[record]]
compound = "CC1CC2C3CC(F)C4=CC(=O)C=CC4(C)C3(F)C(O)CC2(C)C1C(=O)COC(=O)C(C)(C)C (configuration not stated)"
observed = 1.01


Item under review: NC(N)=NCCC[C@@H](NC(=O)[C@@H](N)Cc1ccc(O)cc1)C(=O)O . Reported normalized growth? 1.01

Same lookup for CN1CC(CNC(=O)OCc2ccccc2)CC2c3cccc4c3c(cn4C)CC21 (configuration not stated) , please. 0.985

And the next one, C[C@]12C=CC(=O)C=C1CCC1C3C[C@@H](O)[C@](O)(C(=O)CO)[C@@]3(C)C[C@H](O)[C@@]12F (some centres not stated) ? 0.988

Can you check CO[C@]12C[C@@H](COC(=O)c3cncc(Br)c3)CN(C)[C@@H]1Cc1cn(C)c3cccc2c13 next? 1

Next up: O=c1[nH]cnc2[nH]ncc12 1.03

Would you kindly repeat that for Cc1cccc(Nc2ccncc2S(=O)(=O)NC(=O)NC(C)C)c1 ? 1.03

Try this compound next: CN(C)CCC(c1ccc(Br)cc1)c1ccccn1 (configuration not stated) 0.984

Lookup COC(=O)CCC(C)[C@H]1CCC2C3C(C[C@H](O)[C@@]21C)[C@@]1(C)CC[C@@H](O)C[C@H]1C[C@H]3O (some centres not stated) 1

Same question for CC1=C2[C@H]3OC(=O)[C@@H](C)[C@@H]3CC[C@@]2(C)C=CC1=O please. 1.01

COc1c2ccoc2nc2c(OC)c(OCC(O)C(C)(C)O)ccc12 (configuration not stated) , same question. 0.974

What do you get for Cc1cc(O)c(C)c2c1C(=O)Oc1c(C)c(O)c(C(=O)O)c(C)c1O2 ? 0.978

Okay, and S=P(N1CC1)(N1CC1)N1CC1 ? 0.997
